biological target: Mitogen-activated protein kinase 14 (Homo sapiens); assay: Binding affinity to p38alpha assessed as inhibition of ATF2 phosphorylation preincubated for 4 hrs
measurement_type: IC50 (µM)
Please state the figure in µM; there is no need to write the unit.

Study these solved cases before continuing.
smiles_structure: COc1c(NC(=O)c2cc3ccccc3o2)cc(C(C)(C)C)cc1NS(C)(=O)=O
IC50, µM: 4.1

smiles_structure: COc1ccc(C(C)(C)C)cc1NC(=O)Nc1cccc2ccccc12
IC50, µM: 3.9

smiles_structure: COc1c(NC(=O)c2cc3ccccc3s2)cc(C(C)(C)C)cc1NS(C)(=O)=O
IC50, µM: 2.7

Could you now consider this next molecule?
// IC50 (Mitogen-activated protein kinase 14 (Homo sapiens)) for COc1c(NC(=O)Nc2cccc3ccccc23)cc(C(C)(C)C)cc1NS(C)(=O)=O = 0.079

* * *

experiment: Inhibition of FGFR
measurement_type: IC50

What the record says about COc1c(NC(=O)Nc2ccc(-c3ccc(CN4CCOCC4)nc3)c3ccccc23)cc(C(C)(C)C)cc1NS(C)(=O)=O : IC50 is 7.7 µM

* * *

molecular target: Mitogen-activated protein kinase 14 (Homo sapiens); experiment: Binding affinity to p38alpha by exchange curve binding kinetic analysis
measurement_type: pKd
For clarity, pKd is expressed as the negative log10 of concentration in mol/L.

Lab entry: Mitogen-activated protein kinase 14 (Homo sapiens) assay, compound COc1ccc(C(C)(C)C)cc1NC(=O)Nc1ccc(-c2ccc(CN3CCOCC3)nc2)c2ccccc12 , pKd = 8.74

* * *

biological target: RAF proto-oncogene serine/threonine-protein kinase (Homo sapiens)
Sequence (P04049 whole entry): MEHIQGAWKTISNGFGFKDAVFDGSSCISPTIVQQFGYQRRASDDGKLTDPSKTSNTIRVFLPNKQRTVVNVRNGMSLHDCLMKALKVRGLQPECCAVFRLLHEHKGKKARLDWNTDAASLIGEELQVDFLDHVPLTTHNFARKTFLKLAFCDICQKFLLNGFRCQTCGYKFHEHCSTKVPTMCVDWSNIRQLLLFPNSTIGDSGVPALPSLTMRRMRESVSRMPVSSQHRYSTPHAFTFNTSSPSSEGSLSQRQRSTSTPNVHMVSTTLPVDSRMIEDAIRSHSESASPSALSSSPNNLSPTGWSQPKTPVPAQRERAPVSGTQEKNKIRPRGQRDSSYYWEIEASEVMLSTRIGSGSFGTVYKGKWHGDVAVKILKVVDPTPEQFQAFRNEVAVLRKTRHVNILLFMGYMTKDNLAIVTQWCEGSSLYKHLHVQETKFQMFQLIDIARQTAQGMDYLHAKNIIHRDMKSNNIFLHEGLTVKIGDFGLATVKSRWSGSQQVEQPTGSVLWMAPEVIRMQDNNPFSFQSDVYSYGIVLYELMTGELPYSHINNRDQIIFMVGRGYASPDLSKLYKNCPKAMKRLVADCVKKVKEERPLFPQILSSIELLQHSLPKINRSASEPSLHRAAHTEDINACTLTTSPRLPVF
measurement_type: IC50 (nM)
Answer format: numeric, nM implied, no suffix.

IC50 for COc1c(NC(=O)Nc2ccc(-c3ccc(CN4CCOCC4)nc3)c3ccccc23)cc(C(C)(C)C)cc1NS(C)(=O)=O is 880

* * *

target: Serine/threonine-protein kinase B-raf (Homo sapiens)
Sequence (P15056 whole entry): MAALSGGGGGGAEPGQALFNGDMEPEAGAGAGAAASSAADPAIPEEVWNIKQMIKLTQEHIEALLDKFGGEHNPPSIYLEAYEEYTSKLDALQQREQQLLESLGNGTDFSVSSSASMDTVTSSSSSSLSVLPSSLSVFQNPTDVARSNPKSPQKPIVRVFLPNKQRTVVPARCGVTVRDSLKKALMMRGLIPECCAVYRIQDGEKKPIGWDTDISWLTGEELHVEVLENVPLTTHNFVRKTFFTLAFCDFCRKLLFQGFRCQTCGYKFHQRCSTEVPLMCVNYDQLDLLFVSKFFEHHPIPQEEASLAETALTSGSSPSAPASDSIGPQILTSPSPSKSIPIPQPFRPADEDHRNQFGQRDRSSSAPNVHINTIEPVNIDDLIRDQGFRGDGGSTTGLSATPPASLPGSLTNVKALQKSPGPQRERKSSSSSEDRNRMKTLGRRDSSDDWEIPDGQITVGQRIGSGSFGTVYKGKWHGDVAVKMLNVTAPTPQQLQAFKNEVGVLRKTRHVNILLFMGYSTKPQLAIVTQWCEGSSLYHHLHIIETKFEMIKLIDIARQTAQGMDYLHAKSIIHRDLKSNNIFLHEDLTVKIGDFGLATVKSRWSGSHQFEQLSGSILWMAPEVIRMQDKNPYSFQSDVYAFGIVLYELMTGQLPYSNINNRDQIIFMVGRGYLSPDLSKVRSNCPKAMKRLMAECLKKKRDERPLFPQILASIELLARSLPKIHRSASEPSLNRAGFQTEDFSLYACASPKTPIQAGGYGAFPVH
measurement_type: IC50

Let me check: COc1c(NC(=O)Nc2ccc(-c3ccc(CN4CCOCC4)nc3)c3ccccc23)cc(C(C)(C)C)cc1NS(C)(=O)=O , system Serine/threonine-protein kinase B-raf (Homo sapiens), measured IC50 is 7.2 µM

* * *

Below, each of the compounds is paired with its reported Tm value.
target: Mitogen-activated protein kinase 14 (Homo sapiens, UniProt Q16539)
Sequence (Q16539 whole entry): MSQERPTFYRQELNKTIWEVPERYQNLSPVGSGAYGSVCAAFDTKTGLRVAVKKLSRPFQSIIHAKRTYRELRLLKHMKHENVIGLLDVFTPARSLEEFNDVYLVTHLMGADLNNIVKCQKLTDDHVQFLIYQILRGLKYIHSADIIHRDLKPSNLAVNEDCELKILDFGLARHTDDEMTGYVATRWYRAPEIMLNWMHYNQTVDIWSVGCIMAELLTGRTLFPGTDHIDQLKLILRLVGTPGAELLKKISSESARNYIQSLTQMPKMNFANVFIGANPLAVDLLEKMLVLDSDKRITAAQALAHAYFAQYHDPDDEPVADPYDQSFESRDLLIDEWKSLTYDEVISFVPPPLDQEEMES

smiles_structure: Cc1ccc(C(C)(C)C)cc1NC(=O)Nc1ccc(OCCN2CCOCC2)c2ccccc12
measurement_type: Tm
data_value: 52.7 °C

Observed Tm on Mitogen-activated protein kinase 14 (Homo sapiens, UniProt Q16539), entry COc1c(NC(C)=O)cc(C(C)(C)C)cc1NC(=O)Nc1ccc(-c2ccc(CN3CCOCC3)nc2)c2ccccc12 , equals 63.6 °C

Mitogen-activated protein kinase 14 (Homo sapiens, UniProt Q16539) assay, compound COc1ccc(C(C)(C)C)cc1NC(=O)c1cc2ccccc2o1 , recorded Tm = 46.2 °C

Let me check: COc1c(N)cc(C(C)(C)C)cc1NC(=O)Nc1ccc(-c2ccc(CN3CCOCC3)nc2)c2ccccc12 , system Mitogen-activated protein kinase 14 (Homo sapiens, UniProt Q16539), measured Tm is 61.5 °C

Simply: Cn1nc(C(C)(C)C)cc1NC(=O)Nc1ccc(OCCN2CCOCC2)c2ccccc12 , Mitogen-activated protein kinase 14 (Homo sapiens, UniProt Q16539), Tm = 54.5 °C

Fill in: Mitogen-activated protein kinase 14 (Homo sapiens, UniProt Q16539) Tm for COc1ccc(C(C)(C)C)cc1NC(=O)c1cc2ccccc2s1 = 46.9 °C

Noted Tm for CCc1ccc(C(C)(C)C)cc1NC(=O)Nc1ccc(-c2ccc(CN3CCOCC3)nc2)c2ccccc12 , tested on Mitogen-activated protein kinase 14 (Homo sapiens, UniProt Q16539): 53.9 °C

For COc1c(NC(=O)Nc2cccc3ccccc23)cc(C(C)(C)C)cc1NS(C)(=O)=O on Mitogen-activated protein kinase 14 (Homo sapiens, UniProt Q16539), measured Tm was 56.3 °C
